# System: NCI 60 cell line panel
# test_details: NCI DTP 60 cell line screen assay
# conditions: NCI 60 cell line screen; negative = lyse tumor cells, zero = no growth, positive = slower growth
Mark each entry T if its Activity Value sits below -2, and F for all others.

| compound | system_tested | cat |
| --- | --- | --- |
| COC(=O)C1=C(C(=O)OC)C23C=C(C)C1C2=C(C)C1(CC1)[C@@](C)(O)C3=O (some centres unmarked) [Analog 142] | NCI 60 cell line panel | T |
| CC1=C2C(=C[C@@](C)(C=O)[C@@H]2O)C(=O)[C@](C)(O)C12CC2 [Analog 383] | NCI 60 cell line panel | F |
| CC(=O)O[C@@H]1C2=C(C)C3(CC3)[C@@](C)(O)C(=O)C2=C[C@@]1(C)CO [Analog 371] | NCI 60 cell line panel | T |

As a next step, examine the compound that follows.
Problem: For CC(=O)OC[C@]1(C)C=C2C(=O)[C@](C)(O)C3(CC3)C(C)=C2[C@H]1OC(=O)N(C)CCN(C)C(=O)OC(C)(C)C [Analog 334] , is the recorded Activity Value below the cut-off of -2?
Result: T

This collection of values is drawn from patent US12269793B2.
